// cross-study collection: IC50 for MERTK (Homo sapiens, UniProt Q12866)

Take a look at these entries with their results.
COC[C@H](C)Nc1ncc2c(-c3ccnc(N4CCC5(CC4)COC5)c3)cc([C@H]3CC[C@H](O)CC3)n2n1; ≤ 100 nM
C[C@@H]1CCCN1C1(C)CCc2ccc(-c3cnc4[nH]nc(-c5ccc(C(=O)N6CCC6)cc5)c4c3)cc2CC1 (stereo partly shown); 100 to 1000 nM
CC(C)(C)n1cc(-c2cnc(N)c(C(=O)N[C@@H]3CCN(C(=O)c4ccc(-c5ccccc5Cl)cc4)C3)c2)cn1; 10 to 100 nM
Nc1ncc(-c2cnn(C3CCNCC3)c2)cc1C(=O)N[C@@H]1CCN(C(CO)c2ccccc2)C1 (stereo partly shown); > 1000 nM
CCCCC[C@H](C)Nc1ncc2c(N3CCNCC3)cc([C@H]3CC[C@H](O)CC3)n2n1; ≤ 100 nM
Cn1cc(-c2cnc(N)c(C(=O)N[C@@H]3CCN(C(=O)c4ccc(CN5CCN(CCO)CC5)cc4)C3)c2)cn1; > 1000 nM

Proceeding to the next molecule to report its IC50.
Per the records, this molecule ( Nc1ccccc1-c1cnc(N)c(C(=O)N[C@@H]2CCN(C(=O)c3ccc(-c4ccc(F)cc4Cl)cc3)C2)n1 ) has IC50 equal to 100 to 1000 nM

---

pIC50: −log10 of the molar value.
Here is a set of molecules with reported pIC50 for MERTK (Homo sapiens, UniProt Q12866), compiled from the literature.

Cn1cc(-c2cnc(N)c(C(=O)N[C@@H]3CCN(C(=S)Nc4ccc([N+](=O)[O-])cc4)C3)c2)cn1; < 6.00
O=C(O)c1ccc(Nc2ncc3c(OC4CCOCC4)ncc([C@H]4CC[C@H](O)CC4)c3n2)cc1; ≥ 7.00
C[C@@H](CC(F)(F)F)Nc1ncc2c(O[C@H]3C[C@@H](O)C3)ncc(-c3ccc(C4(C#N)CC4)cc3)c2n1; ≥ 7.00
COCC(C)Nc1ncc2c(-c3ccc4[nH]ccc4c3)cc(C3CCC(O)CC3)n2n1 (centres unmarked); ≥ 7.00
Cn1cc(-c2cnc(N)c(C(=O)N[C@@H]3CCN(C(=O)c4ccc(-c5ccccc5)cc4)C3)c2)cn1; 7.00 to 8.00

Provide reported pIC50 for each item, in the same order as listed.
1. COC[C@H](C)Nc1ncc2c(-c3cnn(C4(C(=O)N5CCCC5)CC4)c3)cc([C@H]3CC[C@H](O)CC3)n2n1
2. COc1ccc(Oc2ccc(-c3ccc(C(=O)N4CC[C@@H](NC(=O)c5cc(-c6cnn(C)c6)cnc5N)C4)cc3)cc2)cc1
3. Cn1cc(-c2cnc(N)c(C(=O)N[C@@H]3CCN(C(=O)c4ccc(OCc5ccc([N+](=O)[O-])cc5)cc4)C3)c2)cn1
4. Nc1ncc(-c2ccc(F)nc2)cc1C(=O)N[C@@H]1CCN(C(=O)c2ccc(-c3ccccc3)cc2)C1
5. C[C@@H]1CCCN1C1(C)CCc2ccc(-c3cnc4[nH]nc(-c5ccc(C(N)=O)c(F)c5)c4c3)cc2CC1 (some centres unmarked)

(A)
≥ 7.00
< 6.00
6.00 to 7.00
6.00 to 7.00
6.00 to 7.00

For each of the items listed, what is its pIC50?
1. CC(C)COc1cc2nccc(Oc3ccc(NC(=O)c4cn(C)c(=O)n(-c5ccc(F)cc5)c4=O)cc3F)c2c2c1OCCO2
2. COC[C@H](C)Nc1ncc2c(-c3cnn(Cc4cnc(C)cn4)c3)cc([C@H]3CC[C@H](O)CC3)n2n1
3. C[C@@H](CC1CC1)Nc1ncc2c(-c3ccc(CN4CCN(C)CC4)cc3)cc([C@H]3CC[C@H](O)CC3)n2n1
4. COc1cc2nccc(Oc3cc(Cl)c(NC(=O)c4cn(C(C)C)c(=O)n(-c5ccc(F)cc5)c4=O)cc3F)c2c2c1OCCO2

(A)
["6.30 to 7.30", "≥ 7.00", "≥ 7.00", "6.30 to 7.30"]

---

From various publications: pIC50 for MERTK (Homo sapiens, UniProt Q12866).
pIC50: −log10 of the molar value.

// below: answered compounds
COc1cc2nccc(Oc3ccc(NC(=O)c4cn(CC(C)C)c(=O)n(-c5ccc(F)cc5)c4=O)cc3F)c2c2c1OCCO2; 6.30 to 7.30
CC[C@@H](C)Nc1ncc2c(OC3CC(C)(C)N(C)C(C)(C)C3)ncc([C@H]3CC[C@H](O)CC3)c2n1; ≥ 7.00
Cc1ccc(C(=O)Nc2ccc(Oc3ccnc4cccnc34)c(F)c2)c(=O)n1-c1ccc(F)cn1; ≥ 7.00

Please look at the following compound next.
Entry C[C@@H]1CCCN1C1(C)CCc2ccc(-c3cnc4[nH]nc(-c5ccc(C(N)=O)cc5)c4c3)cc2CC1 (stereo partly shown) — recorded pIC50 = > 7.00

---

pIC50: −log10 of the molar value.
Let's look at some pIC50 data for MERTK (Homo sapiens, UniProt Q12866) that I collected from the literature.

CCOc1ccn(-c2ccc(F)cc2)c(=O)c1C(=O)Nc1ccc(Oc2ccnc3cc(OCCO)c4c(c23)OCCO4)c(F)c1; ≥ 7.30

Would you mind giving pIC50 for every molecule in the list below?
1. Cc1cscc1-c1ccc(C(=O)N2CC[C@@H](NC(=O)c3cc(-c4cnn(C)c4)cnc3N)C2)cc1
2. CCC(CC)Nc1ncc2c(OC3CCNCC3)ncc([C@H]3CC[C@H](O)CC3)c2n1
3. CN1CCN(Cc2ccc(-c3cccc(NC(=O)N4CC[C@@H](NC(=O)c5cc(-c6cnn(C)c6)cnc5N)C4)c3)cc2)CC1
4. Cn1cc(-c2cnc(N)c(C(=O)N[C@H]3CN(C(=O)c4ccc(-c5ccc(F)cc5Cl)cc4)C[C@H]3F)c2)cn1
5. CCCCC[C@H](C)Nc1ncc2c(-c3ccc(CN4CCN(C)CC4)cc3)cc([C@H]3CC[C@H](O)CC3)n2n1
6. COC[C@H](C)Nc1ncc2c(-c3cnn(CC4CCOCC4)c3)cc([C@H]3CC[C@H](O)CC3)n2n1

(A)
1: 7.00 to 8.00; 2: ≥ 7.00; 3: 7.00 to 8.00; 4: < 6.00; 5: ≥ 7.00; 6: ≥ 7.00

---

// molecules with reported IC50 on MERTK (Homo sapiens), multi-publication

Before answering, review these 6 worked examples.
COC[C@H](C)Nc1ncc2c(-c3ccc(-c4nn[nH]n4)cc3)cc([C@H]3CC[C@H](O)CC3)n2n1; ≤ 100 nM
Cc1ccc(C(=O)N2CC[C@@H](NC(=O)c3cc(-c4cnn(C)c4)cnc3N)C2)cc1-c1ccccc1Cl; > 1000 nM
O[C@H]1CC[C@H](c2cc(-c3ccnc(N4CCOCC4)c3)c3cnc(N[C@H]4CCOC4)nn32)CC1; ≤ 100 nM
OC1CCC(c2cc(-c3ccnc(N4CCOCC4)c3)c3cnc(NC4CCOC4)nn23)CC1 (stereo not shown); ≤ 100 nM
CC(C)(O)c1ccc(-c2n[nH]c3ncc(-c4ccc5c(c4)CCC(N4CCCC4)CC5)cc23)cc1Cl (stereo not shown); 100 to 1000 nM
Nc1ncc(-c2cnn(C3CCOCC3)c2)cc1-c1nnc(-c2c(Cl)cccc2Cl)o1; < 500 nM

Note: attention shifts to another entry.
Record Cc1cc(-c2n[nH]c3ncc(-c4ccc5c(c4)CCC(N4CCCC4)CC5)cc23)cc(F)c1C(N)=O (stereo not shown) , field IC50: 100 to 1000 nM

---

Compiled notes: published pIC50 values involving MERTK (Homo sapiens).
pIC50: −log10 of the molar value.

Guide cases for pIC50, answers given:
CCOc1ncc(CC2CCNCC2)c2nc(N[C@@H](C)CC)ncc12; ≥ 7.00
CN1CCN(Cc2ccc(Oc3ccc(C(=O)N4CC[C@@H](NC(=O)c5cc(-c6cnn(C)c6)cnc5N)C4)cc3)cc2)CC1; < 6.00
CN(C(=O)c1cc(-c2cnn(C)c2)cnc1N)[C@@H]1CCN(Cc2ccccc2)C1; < 6.00
CCOc1ncc([C@H]2CC[C@H](O)CC2)c2nc(N[C@@H](C)COC)ncc12; ≥ 7.00
COC[C@H](C)Nc1ncc2c(-c3cnn(Cc4cnccn4)c3)cc([C@H]3CC[C@H](O)CC3)n2n1; ≥ 7.00

Items follow; give pIC50 for each.
1. CCc1ccccc1-c1ccc(C(=O)N2CC[C@@H](NC(=O)c3cc(-c4cnn(C)c4)cnc3N)C2)cc1
2. COC[C@H](C)Nc1ncc2c(OC3CCOCC3)ncc(-c3cn[nH]c3)c2n1

(A)
["6.00 to 7.00", "6.00 to 7.00"]

Reported MERTK (Homo sapiens) pIC50 for item COC[C@H](C)Nc1ncc2c(N3CCCC3=O)cc([C@H]3CC[C@H](O)CC3)n2n1 was ≥ 7.00

---

pIC50: −log10 of the molar value.
A compilation of published pIC50 results with MERTK (Homo sapiens, UniProt Q12866).

# count of solved cases: 3
CN1CCN(Cc2ccc(C(=O)N3CC[C@@H](NC(=O)c4cc(-c5cnn(C)c5)cnc4N)C3)cc2)CC1; < 6.00
Cn1cc(-c2cnc(N)c(C(=O)N[C@@H]3CCN(C(=O)c4ccc(Oc5ccccc5Cl)cc4)C3)c2)cn1; 7.00 to 8.00
COC[C@H](C)Nc1ncc2c(-c3cnn(C(C)(C)c4nnc(C)o4)c3)cc([C@H]3CC[C@H](O)CC3)n2n1; ≥ 7.00

Below is a list of compounds. For each, state its recorded pIC50.
1. COC[C@H](C)Nc1ncc2c(-c3cnn(C4COC4)c3)cc(C3CCC(=O)NC3)n2n1 (some centres unmarked)
2. COC[C@H](C)Nc1ncc2c(O[C@@H]3CCN(C)C3)ncc([C@H]3CC[C@H](O)CC3)c2n1

(A)
≥ 7.00
≥ 7.00

Value sought for every listed compound: pIC50.
1. Cn1cc(-c2cnc(N)c(C(=O)N[C@@H]3CCN(C(=O)c4ccc(Oc5ccc(N)cc5)cc4)C3)c2)cn1
2. CCc1cc(CO[C@H]2CN(C(=O)c3cccc(-c4ccccc4)c3)C[C@@H]2NC(=O)c2cc(-c3cnn(C)c3)cnc2N)ccc1C
3. COC[C@H](C)Nc1ncc2c(-c3cnn(C4COC4)c3)cc([C@H]3CC[C@](C)(O)CC3)n2n1 (single isomer, unassigned)
4. COCC(C)Nc1ncc2c(-c3ccc4nccn4c3)cc(C3CCC(O)CC3)n2n1 (centres unmarked)

(A)
["< 6.00", "< 6.00", "≥ 7.00", "≥ 7.00"]

Hi, could you look up pIC50 for each item in my list?
1. CC(C)Nc1ncc2c(OC3CCOCC3)ncc(-c3cccc(S(C)(=O)=O)c3)c2n1
2. COC[C@H](C)Nc1ncc2c(OC3C[C@@H](C)N(C)[C@@H](C)C3)ncc([C@H]3CC[C@H](O)CC3)c2n1 (some centres unmarked)
3. CCCCCCCCCCCCN1CCC(n2cc(-c3cnc(N)c(-c4nnc(-c5c(Cl)cccc5Cl)o4)c3)cn2)CC1

(A)
1: ≥ 7.00; 2: ≥ 7.00; 3: 5.00 to 6.00

Dear colleague, could you send me pIC50 for each of the items below? Thanks.
1. CC(Nc1ncc2c(-c3ccc(CN4CCOCC4)cc3)cc(C3CCC(O)CC3)n2n1)C(F)(F)F (centres unmarked)
2. CCc1cc(CO[C@H]2CN(C(=O)c3ccc(-c4ccccc4)cc3)C[C@@H]2NC(=O)c2cc(-c3cnn(C)c3)cnc2N)ccc1C

(A)
["≥ 7.00", "< 6.00"]
